System: HepG2
Run description: cell viability relative to DMSO; higher = less toxic
Run conditions: 72 h; 1000 nM

[
  {
    "Compound": "CC1=C(/C=C/C(C)=C/C=C/C(C)=C/C(=O)O)C(C)(C)CCC1 [tretinoin]",
    "Value units": "%",
    "cell viability": 101
  },
  {
    "Compound": "CCCCCCCCCCC(=O)O[C@H]1CC[C@H]2[C@@H]3CCC4=CC(=O)CC[C@]4(C)[C@H]3CC[C@]12C [Testosterone (undecanoate)]",
    "Value units": "%",
    "cell viability": 99.4
  },
  {
    "Compound": "COC(=O)[C@H](Cc1ccccc1)NC(=O)[C@@H](N)CC(=O)O [aspartame]",
    "Value units": "%",
    "cell viability": 94.3
  },
  {
    "Compound": "O=C(NCc1ccc(OC(F)(F)F)cc1)C1c2ccccc2C(=O)N1C1CCOCC1 (stereo not drawn) [NAV-26]",
    "Value units": "%",
    "cell viability": 112
  },
  {
    "Compound": "CN1C(=O)CCS(=O)(=O)C1c1ccc(Cl)cc1 (stereo not drawn) [chlormezanone]",
    "Value units": "%",
    "cell viability": 103
  },
  {
    "Compound": "Nc1c(CC(=O)O)cccc1C(=O)c1ccc(Br)cc1 [bromfenac]",
    "Value units": "%",
    "cell viability": 104
  },
  {
    "Compound": "NCCc1ccccn1 [2-pyridylethylamine]",
    "Value units": "%",
    "cell viability": 113
  },
  {
    "Compound": "CN(C)[C@@H]1C(O)=C(C(N)=O)C(=O)[C@@]2(O)C(O)=C3C(=O)c4c(O)cccc4[C@@](C)(O)[C@H]3C[C@@H]12 [tetracycline]",
    "Value units": "%",
    "cell viability": 108
  },
  {
    "Compound": "CC1=C(C)C(=O)C(C(CCCCCC(=O)O)c2ccccc2)=C(C)C1=O (stereo not drawn) [seratrodast]",
    "Value units": "%",
    "cell viability": 98.1
  },
  {
    "Compound": "Nc1nccc(-c2ccc3noc(-c4ccc(Cl)cc4)c3c2)n1 [PIM-1-Inhibitor-2]",
    "Value units": "%",
    "cell viability": 92.7
  },
  {
    "Compound": "Cc1c(-c2cnccn2)ssc1=S [oltipraz]",
    "Value units": "%",
    "cell viability": 94.7
  },
  {
    "Compound": "CCC[C@H](N[C@@H](C)C(=O)N1[C@H](C(=O)O)C[C@@H]2CCCC[C@@H]21)C(=O)OCC [perindopril]",
    "Value units": "%",
    "cell viability": 97.2
  },
  {
    "Compound": "O=C1CNC(=O)CN1 [piperazinedione]",
    "Value units": "%",
    "cell viability": 100
  },
  {
    "Compound": "O=C(c1ccc(OCCN2CCCCC2)cc1)c1c(-c2ccc(O)cc2)sc2cc(O)ccc12 [raloxifene]",
    "Value units": "%",
    "cell viability": 101
  },
  {
    "Compound": "COc1cc(OC)c(C(=O)CCCCN2CCC3(CC2)NC(=O)NC3=O)cc1NS(=O)(=O)c1ccc(C(F)(F)F)cc1",
    "Value units": "%",
    "cell viability": 89.1
  },
  {
    "Compound": "CNNCc1ccc(C(=O)NC(C)C)cc1 [procarbazine]",
    "Value units": "%",
    "cell viability": 112
  },
  {
    "Compound": "N#Cc1ccc(C2CCCc3cncn32)cc1 (stereo not drawn) [fadrozole]",
    "Value units": "%",
    "cell viability": 103
  },
  {
    "Compound": "FC(F)c1nc2ccccc2n1-c1nc(N2CCOCC2)nc(N2CCOCC2)n1 [ZSTK-474]",
    "Value units": "%",
    "cell viability": 75.6
  }
]
